test system: HEK2; assay: cells; type: cell-based
*1 amine or outer side, *2 acyl side, *3 side chain or, on linkers, in order; H or OH if unused. Where a SMILES comes first, the peptide text is derived from it. [ ]: non-standard residue; d: D form. Cysteamide = C(CS[*:3])N[*:1]; βAla = NCCC(=O)O
QUANTITY_KIND: pIC50
Recall that pIC50 is obtained by taking minus log10 of the concentration measured in molar.

Look up pIC50 for this compound: CC(=O)NCCC(=O)N[C@@H](Cc1c[nH]c2ccccc12)C(=O)N[C@@H](Cc1ccccc1)C(=O)N[C@@H](CCCNC(=N)N)C(=O)N[C@@H](CC(C)C)C(=O)N[C@@H](CO)C(=O)N[C@@H](CC(C)C)C(=O)N[C@@H](CCCNC(=N)N)C(=O)N[C@@H](Cc1ccccc1)C(=O)N[C@@H](Cc1c[nH]c2ccccc12)C(=O)N[C@@H](CCCNC(=N)N)C(=O)NCCS [VEPEP-3j, X1WFRLSLRFWR] (Ac-[βAla]WFRLSLRFWR-Cysteamide)
6.52

###

test: Fluorescence titration of VEPEP-4 binding to small molecule cargo; conditions: cargo Doxorubicin
*1 amine or outer side, *2 acyl side, *3 side chain or, on linkers, in order; H or OH if unused. Where a SMILES comes first, the peptide text is derived from it. [ ]: non-standard residue; d: D form. Cysteamide = C(CS[*:3])N[*:1]; βAla = NCCC(=O)O
QUANTITY_KIND: pKd
Recall that pKd is obtained by taking minus log10 of the concentration measured in molar.

Look up pKd for this compound: CC(=O)NCCC(=O)N[C@@H](Cc1c[nH]c2ccccc12)C(=O)N[C@@H](Cc1c[nH]c2ccccc12)C(=O)N[C@@H](CCCNC(=N)N)C(=O)N[C@@H](CC(C)C)C(=O)N[C@@H](CCCNC(=N)N)C(=O)N[C@@H](CO)C(=O)N[C@@H](Cc1c[nH]c2ccccc12)C(=O)N[C@@H](Cc1ccccc1)C(=O)N[C@@H](CCCNC(=N)N)C(=O)NCCS [Short 3, X1WWRLRSWFR] (Ac-[βAla]WWRLRSWFR-Cysteamide)
7.00

Look up pKd for this compound: CC(=O)NCCC(=O)N[C@@H](Cc1c[nH]c2ccccc12)C(=O)N[C@@H](Cc1ccccc1)C(=O)N[C@@H](CCCNC(=N)N)C(=O)N[C@@H](CC(C)C)C(=O)N[C@@H](CO)C(=O)N[C@@H](CC(C)C)C(=O)N[C@@H](CCCNC(=N)N)C(=O)N[C@@H](Cc1ccccc1)C(=O)N[C@@H](Cc1c[nH]c2ccccc12)C(=O)N[C@@H](CCCNC(=N)N)C(=O)NCCS [VEPEP-3j, X1WFRLSLRFWR] (Ac-[βAla]WFRLSLRFWR-Cysteamide)
7.15

Look up pKd for this compound: CC(=O)NCCC(=O)N[C@@H](Cc1c[nH]c2ccccc12)C(=O)N[C@@H](Cc1ccccc1)C(=O)N[C@@H](CCCNC(=N)N)C(=O)N[C@@H](CC(C)C)C(=O)N[C@@H](CO)C(=O)N[C@@H](CC(C)C)C(=O)N[C@@H](CCCNC(=N)N)C(=O)N[C@@H](Cc1ccccc1)C(=O)N[C@@H](Cc1c[nH]c2ccccc12)C(=O)NCCS [Short 4, X1WFRLSLRFW] (Ac-[βAla]WFRLSLRFW-Cysteamide)
8.00
